From: patent US11014917B2

# Assay System: human SGLT2 (Homo sapiens, UniProt P31639)
# Construct: expressed in transfected cells
# Protocol Summary: SGLT2 assay: Na-dependent 14C-AMG uptake in CHO-K1 cells stably expressing human SGLT2
# Type: cell-based
# Experimental Setup: @ 0.3 μM
Measured SGLT2 %-inhibition, listed per entry.
Measurement Type: SGLT2 %-inhibition

Molecule	Assay System	Measurement Type	Result
[2H]C([2H])(c1ccc2c(c1)OCCO2)c1cc([C@@H]2O[C@H](CO)[C@@H](F)[C@H](O)[C@H]2O)ccc1C	human SGLT2 (Homo sapiens, UniProt P31639)	SGLT2 %-inhibition	80.1% @ 0.3 μM
COC(=O)N1CCc2sc(Cc3cc([C@@H]4O[C@H](CO)[C@@H](F)[C@H](O)[C@H]4O)c(OC)cc3OC)cc2C1	human SGLT2 (Homo sapiens, UniProt P31639)	SGLT2 %-inhibition	72.3% @ 0.3 μM
COc1cc(C)c(Cc2cc3c(s2)CCN(C(=O)N2CCOCC2)C3)cc1[C@@H]1O[C@H](CO)[C@@H](F)[C@H](O)[C@H]1O	human SGLT2 (Homo sapiens, UniProt P31639)	SGLT2 %-inhibition	60.3% @ 0.3 μM
CCc1ccc([C@@H]2O[C@H](CO)[C@@H](F)[C@H](O)[C@H]2O)cc1Cc1ccc2c(c1)OC(F)(F)O2 [Compound 159]	human SGLT2 (Homo sapiens, UniProt P31639)	SGLT2 %-inhibition	0.0% @ 0.3 μM

---

# Assay System: UniProt:P13866
# Protocol Summary: SGLT1 assay: Na-dependent 14C-AMG uptake in CHO-K1 cells stably expressing human SGLT1
# Experimental Setup: average if tested more than once
pIC50: −log10 of the molar value.
Measurement Type: pIC50

Compound String	Quantitative Result
[2H]C1([2H])Oc2ccc(Cc3cc([C@@H]4O[C@H](CO)[C@@H](F)[C@H](O)[C@H]4O)ccc3CC)cc2OC1([2H])[2H]	7.06
CCc1ccc(Cc2cc([C@@H]3O[C@H](CO)[C@@H](F)[C@H](O)[C@H]3O)c(OC)c3c2OCC3)cc1	7.07
COc1cc(C)c(Cc2cc3c(s2)CCN(C(=O)N2CCCC2)C3)cc1[C@@H]1O[C@H](CO)[C@@H](F)[C@H](O)[C@H]1O	6.65

---

# Assay System: human SGLT1 (Homo sapiens)
# Protocol Summary: SGLT1 assay: Na-dependent 14C-AMG uptake in CHO-K1 cells stably expressing human SGLT1
# Experimental Setup: average if tested more than once

Compound String	Assay System	Units Of Measure	IC50
COc1cc(Cl)c([C@@H]2O[C@H](CC#N)[C@@H](F)[C@H](O)[C@H]2O)cc1Cc1cc2ccccc2s1	human SGLT1 (Homo sapiens)	nM	847
Cc1cc(O)c([C@@H]2O[C@H](C)[C@@H](F)[C@H](O)[C@H]2O)cc1Cc1cc2ccccc2s1	human SGLT1 (Homo sapiens)	nM	111
COc1c(Cc2cc3ccccc3s2)cc([C@@H]2O[C@H](CO)[C@@H](F)[C@H](O)[C@H]2O)c(OC)c1C	human SGLT1 (Homo sapiens)	nM	100
Cc1cc(O)c([C@@H]2O[C@H](CN)[C@@H](F)[C@H](O)[C@H]2O)cc1Cc1cc2ccccc2s1	human SGLT1 (Homo sapiens)	nM	977
CCc1c(Cc2ccc3c(c2)OCCO3)cc([C@@H]2O[C@H](CO)[C@@H](F)[C@H](O)[C@H]2O)c2c1CCO2	human SGLT1 (Homo sapiens)	nM	61
[2H]C1([2H])Oc2ccc(Cc3cc([C@@H]4O[C@H](CO)[C@@H](F)[C@H](O)[C@H]4O)c(OC)c4c3OCC4)cc2OC1([2H])[2H]	human SGLT1 (Homo sapiens)	nM	45
COc1cc(OC)c([C@@H]2O[C@H](CO)[C@@H](F)[C@H](O)[C@H]2O)cc1Cc1cc2ccccc2s1	human SGLT1 (Homo sapiens)	nM	100
Cc1cc(O)c([C@@H]2O[C@H](CO)[C@@H](F)[C@H](O)[C@H]2O)cc1Cc1cc2c(s1)CCN(C(=O)c1nccs1)C2	human SGLT1 (Homo sapiens)	nM	101
OC[C@H]1O[C@@H](c2cc3c(c(Cc4ccc5c(c4)NCCC5)c2)OCC3)[C@H](O)[C@@H](O)[C@@H]1F	human SGLT1 (Homo sapiens)	nM	42
Cc1cnc(N2CCc3sc(Cc4cc([C@@H]5O[C@H](CO)[C@@H](F)[C@H](O)[C@H]5O)c(O)cc4C)cc3C2)s1	human SGLT1 (Homo sapiens)	nM	101
COc1cc(C)c(Cc2cc3ccccc3s2)cc1[C@@H]1O[C@H](CO)[C@@H](F)[C@H](O)[C@H]1O	human SGLT1 (Homo sapiens)	nM	68
COC[C@H]1O[C@@H](c2cc(Cc3cc4ccccc4s3)c(OC)cc2O)[C@H](O)[C@@H](O)[C@@H]1F	human SGLT1 (Homo sapiens)	nM	126
COc1c([C@@H]2O[C@H](CO)[C@@H](F)[C@H](O)[C@H]2O)cc(Cc2ccc3c(c2)NCCC3)c2c1CCO2	human SGLT1 (Homo sapiens)	nM	128

---

# Assay System: human SGLT2 (Homo sapiens)
# Construct: expressed in transfected cells
# Protocol Summary: SGLT2 assay: Na-dependent 14C-AMG uptake in CHO-K1 cells stably expressing human SGLT2
# Format: cell-based
# Experimental Setup: @ 0.3 μM
Measurement Type: SGLT2 %-inhibition (% @ 0.3 μM)

Compound	Quantitative Result
Cc1ccc([C@@H]2O[C@H](CO)[C@@H](F)[C@H](O)[C@H]2O)cc1Cc1cc2c(s1)CCN(C(=O)C1CCCC1)C2	59.0
[2H]C([2H])(c1ccc2c(c1)OC([2H])([2H])C([2H])([2H])O2)c1cc([C@@H]2O[C@H](CO)[C@@H](F)[C@H](O)[C@H]2O)ccc1CC	56.1
CC1(C)Oc2c(Cc3ccc4c(c3)OCCO4)cc([C@@H]3O[C@H](CO)[C@@H](F)[C@H](O)[C@H]3O)cc2C1CO (stereo partly drawn)	10.1

---

# Assay System: human SGLT1 (Homo sapiens, UniProt P13866)
# Construct: expressed in transfected cells
# Sequence (P13866 whole entry): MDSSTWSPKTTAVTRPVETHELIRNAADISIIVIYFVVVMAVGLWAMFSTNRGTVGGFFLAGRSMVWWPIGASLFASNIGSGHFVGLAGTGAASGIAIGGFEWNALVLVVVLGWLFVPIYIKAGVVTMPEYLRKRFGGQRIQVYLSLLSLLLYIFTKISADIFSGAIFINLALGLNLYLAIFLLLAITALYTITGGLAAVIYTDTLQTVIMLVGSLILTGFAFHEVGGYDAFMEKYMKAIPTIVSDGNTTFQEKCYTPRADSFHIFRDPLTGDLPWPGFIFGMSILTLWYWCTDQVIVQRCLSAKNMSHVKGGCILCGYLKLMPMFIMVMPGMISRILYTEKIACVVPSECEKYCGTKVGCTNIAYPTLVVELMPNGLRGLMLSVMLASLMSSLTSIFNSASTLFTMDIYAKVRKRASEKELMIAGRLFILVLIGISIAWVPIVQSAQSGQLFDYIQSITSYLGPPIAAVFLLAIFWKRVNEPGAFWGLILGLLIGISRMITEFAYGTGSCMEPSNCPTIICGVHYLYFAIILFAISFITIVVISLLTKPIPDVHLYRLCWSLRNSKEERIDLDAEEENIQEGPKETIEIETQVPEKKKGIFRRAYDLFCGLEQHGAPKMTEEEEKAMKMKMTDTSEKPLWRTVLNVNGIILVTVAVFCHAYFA
# Protocol Summary: SGLT1 assay: Na-dependent 14C-AMG uptake in CHO-K1 cells stably expressing human SGLT1
# Type: cell-based
# Experimental Setup: @ 0.3 μM
Measured SGLT1 %-inhibition, listed per entry.

Molecule	SGLT1 %-inhibition (% @ 0.3 μM)
[2H]C([2H])(c1ccc2c(c1)OC([2H])([2H])C([2H])([2H])O2)c1cc([C@@H]2O[C@H](CO)[C@@H](F)[C@H](O)[C@H]2O)ccc1CC [Compound 176]	68.9
COc1cc(OC)c([C@@H]2O[C@H](CO)[C@@H](F)[C@H](O)[C@H]2O)cc1Cc1cc2c(s1)CCN(C(C)=O)C2 [Compound 82]	42.2
COc1cc(C)c(Cc2cc3c(s2)CCN(C(=O)N2CCOCC2)C3)cc1[C@@H]1O[C@H](CO)[C@@H](F)[C@H](O)[C@H]1O [Compound 69]	20.4
COc1cc(OCC#N)c([C@@H]2O[C@H](C(C)O)[C@@H](F)[C@H](O)[C@H]2O)cc1Cc1cc2ccccc2s1 (single isomer, unassigned) [Compound 71]	76.4
[2H]C([2H])(c1ccc2c(c1)OCCO2)c1cc([C@@H]2O[C@H](CO)[C@@H](F)[C@H](O)[C@H]2O)ccc1C [Compound 167]	37.9
CC(=O)N1CCc2sc(Cc3cc([C@@H]4O[C@H](CO)[C@@H](F)[C@H](O)[C@H]4O)c(O)cc3Cl)cc2C1 [Compound 74]	65.5

---

Measured IC50, listed per entry.
# Assay System: human SGLT2 (Homo sapiens, UniProt P31639)
# Sequence (P31639 1-672): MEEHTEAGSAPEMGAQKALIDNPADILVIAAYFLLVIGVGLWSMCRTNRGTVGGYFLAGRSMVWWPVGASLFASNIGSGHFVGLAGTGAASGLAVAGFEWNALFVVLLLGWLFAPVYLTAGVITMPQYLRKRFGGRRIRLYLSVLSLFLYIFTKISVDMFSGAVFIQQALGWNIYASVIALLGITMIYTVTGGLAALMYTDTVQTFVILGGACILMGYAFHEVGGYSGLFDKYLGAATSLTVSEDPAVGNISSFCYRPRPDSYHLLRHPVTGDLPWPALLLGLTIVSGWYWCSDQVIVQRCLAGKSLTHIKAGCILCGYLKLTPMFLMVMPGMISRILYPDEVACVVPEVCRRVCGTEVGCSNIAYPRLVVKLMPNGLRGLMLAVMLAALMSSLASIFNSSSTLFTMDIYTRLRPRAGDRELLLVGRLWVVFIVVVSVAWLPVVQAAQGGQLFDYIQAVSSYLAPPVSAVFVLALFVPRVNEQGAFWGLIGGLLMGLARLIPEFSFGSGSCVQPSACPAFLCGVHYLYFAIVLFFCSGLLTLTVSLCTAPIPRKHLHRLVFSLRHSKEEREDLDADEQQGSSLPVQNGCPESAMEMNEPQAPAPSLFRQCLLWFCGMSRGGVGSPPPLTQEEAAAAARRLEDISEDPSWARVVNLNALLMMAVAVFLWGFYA
# Protocol Summary: SGLT2 assay: Na-dependent 14C-AMG uptake in CHO-K1 cells stably expressing human SGLT2
# Experimental Setup: average if tested more than once
# Method: The ability of the compounds of formula (I) of the present invention to treat an SGLT-mediated condition was determined using the following procedures: […] Inhibition of SGLT1 and SGLT2 activity was assessed in CHO K1 cells stably expressing either human SGLT1 or SGLT2, using the SGLT specific glucose analog methyl-glucopyranoside (Sigma Catalog No. M-9376). […] The cells were then solubilized by adding 60 μl of MICROSCINT™20 and the Na-dependent ^14C-AMG uptake was quantified by measuring radioactivity. […]

Compound	IC50, nM
Cc1cc(O)c([C@@H]2O[C@H](CO)[C@@H](F)[C@H](O)[C@H]2O)cc1Cc1cc2c(s1)C(=O)CCO2 [Compound 129]	7
CCc1cc(O)c([C@@H]2O[C@H](CO)[C@@H](F)[C@H](O)[C@H]2O)cc1Cc1cc2ccccc2s1 [Compound 31]	19
COc1cc(O)c([C@@H]2O[C@H](CF)[C@@H](F)[C@H](O)[C@H]2O)cc1Cc1cc2ccccc2s1 [Compound 11]	59
